assay: yeast display, Sf9 membrane polyspecificity reagent, FACS + sequencing; frameworks hold sequencing errors

{"seq text": "QVQLVESGGGLVQAGGSLRLSCAASGFTFIGYAMGWYRQAPGKERELVAAITISGGSTYYADSVKGRFTISRDNAKNTVYLQMNSLKPEDTAVYYCNVYRLAAFYSLRGYRYDYWGQGTQVTVSS", "polyreactivity (PSR sort gate)": "high polyreactivity"}
{"seq text": "QVQLVESGGGLVQAGGSLRLSCAGSGIIFSRYAMGWYRQAPGKERELVAAISSSGGTTYYADSVKGRFTISRDNAKNTVYLQMNSQKPEDTAVYYCYAPAFYKYKSFYAHSGYDYWGQGTQVTVSS", "polyreactivity (PSR sort gate)": "high polyreactivity"}

----------
test: yeast display, Sf9 membrane polyspecificity reagent, FACS + sequencing; frameworks hold sequencing errors
readout name: polyreactivity (PSR sort gate)

{"seq text": "QVHLVESGGGLVQAGGSLRLSCAASGRIFSWYTMGWYRQAPGKERELVAVITSGGTTKYADSVKGRFTISRDNAKNTVYLQMNSLKPEDTAVYYCNVAGRDYAVRWGSFDYWGQGTQVTVSS", "assay value": "low polyreactivity"}
{"seq text": "QVQLVESGGGLVQAGGSLRLSCAASGSTFYYNAMGWYRQAPGKERELVATISGGGTTYYADSVKGRFTISRDNAKNSVYLQMISLKPEDTAVYYCATDWHIEYLYRKVHGRKHDYWGQGTQVTVSS", "assay value": "low polyreactivity"}

----------
assay: yeast display, Sf9 membrane polyspecificity reagent, FACS + sequencing; frameworks hold sequencing errors

{"seq text": "QVQLEESGGGLVQAGGSLRLSCAASGSIFGYYAMGWYRKATGKEREFVADINSRDGGTYYADSVKGRFTISRDNAKNTVYLQMNSLKPEDTAVYYCAAPYYAAWVAVAIEYDYWGQGTQVTVSS", "polyreactivity (PSR sort gate)": "low polyreactivity"}
{"seq text": "QVQLVESGGGLVQAGGSLRLSCAASGFTFRYYAKGWYRQAPVKERELVARISRGGNTYYADSVKGRLTISRDNAKNTVYLHMNSLKPEDTAVYYCAVDLTRTLSGMDYWGQGTQVTVSS", "polyreactivity (PSR sort gate)": "high polyreactivity"}
{"seq text": "QVQLVESGGGLVQAGGSLRLSSAASGFIFQSYAMGWYRQAPGKERELVAAISASGGRTYYADSVKGRFTISRDNAKNTVYLQMNSLKPEDTAVYYCAAYRSYWAVYPRMYYWGQGTQVTVSS", "polyreactivity (PSR sort gate)": "high polyreactivity"}
{"seq text": "QVQLVESGGGLVQAGGSLRLSCAASGSTFFSYAMGWYRQAPGTERELVAAITRSGGSTYYADSVKGRFTISRDNAKNTVYLQMNSLKPEDTAVYYCAPRRYEPKAVYYWGQGTQVTVSS", "polyreactivity (PSR sort gate)": "high polyreactivity"}
{"seq text": "QVQLVESGGGLVQAGGSLRISCAASGFIFSRNAMGWYRQAPGKERELVAAISAGGGSTYYADSVKGRFTISRDNAKNTVYLQMNSLKPEDSAVYSCAAYFRSQFGYWGQGTQVTVSS", "polyreactivity (PSR sort gate)": "high polyreactivity"}
{"seq text": "QVQLVESGGGLVQAGGSLSLSCAASGSIFVYKAMGWYRPAHGKERELVAAISSSGGSTYYADSVKGRFTISRDNAKNTVYLQMNSLKPEDTAVYYCAAEAVRKVPSYYSYAYYYWGQGTQVTVSS", "polyreactivity (PSR sort gate)": "high polyreactivity"}
{"seq text": "QVQLVESGAGLVQAGGSLRLSCAASGRIFYWYAMGWYRQAPGKERELVAAIRRRVGSTYYADSVKGRFTISRDNAKNTVYLQMNSLKPEDTAVYYCAAVITSDGARYDYWGQGTQVTVSS", "polyreactivity (PSR sort gate)": "high polyreactivity"}
{"seq text": "QVQLVESGGGLVQAGGSLRLSCAASGFIFGLYAMGWYRQAPGKERELVAAISRRGGSTYYADSVKGRFTISLDNAKNTVYLQMNSLKPEDTAVYYCATDHSYIDDWGQGTEVTVSS", "polyreactivity (PSR sort gate)": "high polyreactivity"}
{"seq text": "QVQLVESGGGLVQAGGSLRLSCAASARIFWRNTMGWSRQAPGKERELVAAINYSGGRTYYADSVQGRFTISRDKAKNTVYLQMNSLKPEDTAVFDCAATPPVATNGRYYYWGQGTQVTVSS", "polyreactivity (PSR sort gate)": "low polyreactivity"}
{"seq text": "QVQLVESGGGLVQAGGSLRLSCAASGGIFRVYAMGWYRQAPGKERELVAAISRSGSSTYYAVSVKGRFTISRDNAKNTVYLQMNSLKPEDTAVYYCNAYSQYWLGNNYWGEGTQVTVSS", "polyreactivity (PSR sort gate)": "high polyreactivity"}
{"seq text": "QVQLVESGGGLVQAGGSLRLSCAASGFTFYPYTMGWYRQAPGKERELVAAISSSGGSTYYADSVKGRFTISRDNAMNTVYLQMNSLKPEDTAVYYCATRSWGPYYYGYNHWGQGSQVTVSS", "polyreactivity (PSR sort gate)": "high polyreactivity"}
{"seq text": "QVQLVESGGGLVQAGGSLRLSCAASGSSFDVYTMGWYRQAPGKERELVAAINTGGGSTYYADSVKGRFTISRDNAKNTVYLQMNSLKPEDTAVYYCAASVYHYGPLYYWGQGTQVTVSS", "polyreactivity (PSR sort gate)": "low polyreactivity"}
{"seq text": "QVQLVETGGGLVQAGGSLRLSCAASGRIFGPYAMGWYRQAPGKERELVAAITWSGVSTYYADSVKGRFTISRDNAKNSVYLQMNSLKQEDTAVYYCAVDPRGHEGVRYNYWGQGTKVTVSS", "polyreactivity (PSR sort gate)": "low polyreactivity"}
{"seq text": "QVQLVESGGGLVQAGGSLRLSCAASGRIFDHNAMGWYRQAPGKERELVAAIDWSGGSTYYADSVKGRFTISRDNAKNTVYLQMNSLKPEDTAVYYCNVYWHTFSWDDYGYWGQGTQVTVSS", "polyreactivity (PSR sort gate)": "low polyreactivity"}
{"seq text": "QVQRVESGGGLVQAGASLRLSCAASGSTFLTNAMGWYIQAPGKERELVAAITWSGTSTYADSVKGRFTISRDNAKNTVYLQMNSLKPEDTAVYYCIADGWYYPTDDYWGQGTQVTVSS", "polyreactivity (PSR sort gate)": "low polyreactivity"}
{"seq text": "QVQLVESGGGLDQAGGSLRLSCAASGSIFNYKAMGWYRQAPGKEREMVAGISYHGDSTYADSVKGPFTISRDNAKNTVYLQMKSLKPEDTAVYYCAALGPDDWLWAGDYWGQGTQVTVSS", "polyreactivity (PSR sort gate)": "low polyreactivity"}
{"seq text": "QVQLVESGGGLVQAGGSLRLSCAASGRTFYTYAMGWYRQAPGKERELVAAISISGSRTYYADSVKGRFTISRDNAKNTVYLQMNSLKPEDTAVYYCAADRSYWAYVFQYVSYGEDYWGQGTQVTVSS", "polyreactivity (PSR sort gate)": "high polyreactivity"}
{"seq text": "QVQLVESGGGLVQAGGSLRLSCAASGSTFPGYAMGWYRQAPGKERELVAAGGSTYYADSVKGRFTISRDNAKNTVYFQMNSLKPEDTAGYYCAATWGSVQKGTYYYWGQGTQVTVSS", "polyreactivity (PSR sort gate)": "low polyreactivity"}
{"seq text": "QVQLVESGGGLVQAGGSLRLSCAASGSTFGYNAMGCYRQAPGKERELVAAISRSGGRTYYADSVKGRFTISRDNAKNTVYLQMNSLIPEDTAVYYCATYYTNKVPARYYWGQGTQVTVSS", "polyreactivity (PSR sort gate)": "high polyreactivity"}
{"seq text": "QVQIVESGGGLVQAGGSLRLSCAASGRTFNQYAMGWYRQAPVKERELVAAISASGGNTYYADSVKGRFTISRDNAKNNVYVQMNSLKQEDTEVYYCADKQSSSRYYGNDYWGQGTQVTVSS", "polyreactivity (PSR sort gate)": "high polyreactivity"}
{"seq text": "QVQLVESGGGLVQAGGSLRLSCAASGLPFRFNALGWNRQAPGKERELVARISAGGGSTYYADSVKGRFTISRDNAKNTVYLQMNSLKPEDTAVYYCAVDKSTEFSSGPHVAGDDSWGQGTQVTVSS", "polyreactivity (PSR sort gate)": "low polyreactivity"}

Origin of the recorded values: the nanobody polyreactivity screen of Harvey et al. (2022)
